# key: entry, value: EC50
- measurement-target: Peroxisome proliferator-activated receptor alpha (Homo sapiens, UniProt Q07869)
- Sequence (Q07869 whole entry): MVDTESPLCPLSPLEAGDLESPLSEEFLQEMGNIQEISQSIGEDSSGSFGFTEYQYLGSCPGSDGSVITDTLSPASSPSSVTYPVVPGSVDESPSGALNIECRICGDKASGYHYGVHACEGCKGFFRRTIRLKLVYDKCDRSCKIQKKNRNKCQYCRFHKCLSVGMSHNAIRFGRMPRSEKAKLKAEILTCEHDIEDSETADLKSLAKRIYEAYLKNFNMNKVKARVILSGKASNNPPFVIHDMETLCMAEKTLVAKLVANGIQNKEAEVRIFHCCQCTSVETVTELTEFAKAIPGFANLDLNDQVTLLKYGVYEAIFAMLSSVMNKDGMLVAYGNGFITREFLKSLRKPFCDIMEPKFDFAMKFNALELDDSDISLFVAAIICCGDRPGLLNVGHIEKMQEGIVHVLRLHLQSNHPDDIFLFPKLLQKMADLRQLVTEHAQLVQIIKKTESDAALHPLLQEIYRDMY
- protocol-text: Agonist activity at human PPAR-alpha expressed in african green monkey CV-1 cells after 24 hrs by luciferase reporter gene assay

{"molecule": "Cc1cc([Se]Cc2sc(-c3ccc(C(F)(F)F)cc3)nc2C)ccc1OC(C)(C)C(=O)O", "units-label": "nM", "relation-symbol": "=", "EC50": 15.2}
{"molecule": "CCC(Oc1ccc([Se]Cc2sc(-c3ccc(C(F)(F)F)cc3)nc2C)cc1C)C(=O)O (stereo not drawn)", "units-label": "nM", "relation-symbol": "=", "EC50": 83.1}
{"molecule": "Cc1cc([Se]Cc2sc(-c3ccc(C(F)(F)F)c(F)c3)nc2C)ccc1OC(C)C(=O)O (stereo not drawn)", "units-label": "nM", "relation-symbol": "=", "EC50": 39.4}
{"molecule": "CCC(Oc1ccc([Se]Cc2sc(-c3ccc(C(F)(F)F)c(F)c3)nc2C)cc1C)C(=O)O (stereo not drawn)", "units-label": "nM", "relation-symbol": ">", "EC50": 1000}
{"molecule": "Cc1cc([Se]Cc2sc(-c3ccc(C(F)(F)F)cc3)nc2C)ccc1OCC(=O)O", "units-label": "nM", "relation-symbol": ">", "EC50": 1000}
{"molecule": "Cc1cc([Se]Cc2sc(-c3ccc(C(F)(F)F)cc3)nc2C)ccc1OC(C)C(=O)O (stereo not drawn)", "units-label": "nM", "relation-symbol": "=", "EC50": 120}
{"molecule": "Cc1cc([Se]Cc2sc(-c3ccc(C(F)(F)F)c(F)c3)nc2C)ccc1OCC(=O)O", "units-label": "nM", "relation-symbol": "=", "EC50": 350}
{"molecule": "Cc1cc([Se]Cc2sc(-c3ccc(C(F)(F)F)c(F)c3)nc2C)ccc1OC(C)(C)C(=O)O", "units-label": "nM", "relation-symbol": "=", "EC50": 24.6}

----------
- measurement-target: Peroxisome proliferator-activated receptor delta (Homo sapiens)
- Sequence (Q03181 whole entry): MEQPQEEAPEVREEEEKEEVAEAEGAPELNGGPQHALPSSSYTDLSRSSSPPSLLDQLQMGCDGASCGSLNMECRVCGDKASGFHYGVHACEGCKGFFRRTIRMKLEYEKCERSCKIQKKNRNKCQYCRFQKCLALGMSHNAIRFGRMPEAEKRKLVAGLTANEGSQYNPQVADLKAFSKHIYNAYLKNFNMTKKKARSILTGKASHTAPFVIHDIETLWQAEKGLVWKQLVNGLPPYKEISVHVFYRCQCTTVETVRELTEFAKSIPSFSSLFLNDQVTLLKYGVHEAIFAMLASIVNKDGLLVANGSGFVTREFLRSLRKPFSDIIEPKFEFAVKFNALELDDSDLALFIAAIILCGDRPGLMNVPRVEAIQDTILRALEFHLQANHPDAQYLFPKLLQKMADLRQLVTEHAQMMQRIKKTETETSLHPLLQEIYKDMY
- protocol-text: Agonist activity at human PPAR-delta expressed in african green monkey CV-1 cells after 24 hrs by luciferase reporter gene assay
pEC50: −log10 of the molar value.
# key: entry, value: pEC50

{"compound": "Cc1cc([Se]Cc2sc(-c3ccc(C(F)(F)F)c(F)c3)nc2C)ccc1OC(C)C(=O)O (stereo not drawn)", "pEC50": 8.07}
{"compound": "Cc1cc([Se]Cc2sc(-c3ccc(C(F)(F)F)cc3)nc2C)ccc1OC(C)C(=O)O (stereo not drawn)", "pEC50": 7.96}
{"compound": "CCC(Oc1ccc([Se]Cc2sc(-c3ccc(C(F)(F)F)c(F)c3)nc2C)cc1C)C(=O)O (stereo not drawn)", "pEC50": 8.15}
{"compound": "Cc1cc([Se]Cc2sc(-c3ccc(C(F)(F)F)cc3)nc2C)ccc1OC(C)(C)C(=O)O", "pEC50": 8.35}
{"compound": "CCC(Oc1ccc([Se]Cc2sc(-c3ccc(C(F)(F)F)cc3)nc2C)cc1C)C(=O)O (stereo not drawn)", "pEC50": 8.21}
{"compound": "Cc1cc([Se]Cc2sc(-c3ccc(C(F)(F)F)c(F)c3)nc2C)ccc1OC(C)(C)C(=O)O", "pEC50": 8.74}
{"compound": "Cc1cc([Se]Cc2sc(-c3ccc(C(F)(F)F)c(F)c3)nc2C)ccc1OCC(=O)O", "pEC50": 9.00}
{"compound": "Cc1cc([Se]Cc2sc(-c3ccc(C(F)(F)F)cc3)nc2C)ccc1OCC(=O)O", "pEC50": 9.05}
